- target.system: human Somatostatin 4 receptor (SSTR4) (Homo sapiens (Human), UniProt P31391)
- Sequence (P31391 whole entry): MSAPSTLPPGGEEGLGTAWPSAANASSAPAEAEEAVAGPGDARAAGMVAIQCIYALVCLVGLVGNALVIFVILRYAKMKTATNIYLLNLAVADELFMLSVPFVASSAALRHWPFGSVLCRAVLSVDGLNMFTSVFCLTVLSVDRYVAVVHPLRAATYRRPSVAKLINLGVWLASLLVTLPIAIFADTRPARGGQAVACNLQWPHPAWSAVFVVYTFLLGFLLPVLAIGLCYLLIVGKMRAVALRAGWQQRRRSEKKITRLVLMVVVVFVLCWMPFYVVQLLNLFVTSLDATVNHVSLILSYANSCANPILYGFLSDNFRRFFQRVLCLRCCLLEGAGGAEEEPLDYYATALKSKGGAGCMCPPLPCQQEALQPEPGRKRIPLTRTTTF
- method: cAMP assay with human somatostatin 4 receptor (hSSTR4 expressing H4 cells)
- Type: cell-based
- condition.info: cAMP assay, read-out: SSTR4 agonism EC50
For each entry below, report its pEC50 value.
# pEC50: negative log10 of molar concentration; output just the value

Quick check: pEC50 of CC(C)(COc1cnc(Cl)c2ccccc12)NC(=O)[C@H]1[C@@H]2CNC[C@@H]21 ?
8.01

Name the recorded pEC50 for Cc1nc(C(C)NC(=O)[C@H]2[C@@H]3CNC[C@@H]32)c2ccccc2n1 (stereo partly shown) [Example 161] .
6.12

Please report the recorded pEC50 for Cc1cccc2c(C(C)NC(=O)[C@H]3[C@@H]4CNC[C@@H]43)nn(C)c12 (single isomer, unassigned) [Example 119] .
8.49

Name the reported pEC50 value associated with the compound CC(C)(NC(=O)[C@H]1[C@@H]2CNC[C@@H]21)c1ccc(Cl)c(Cl)c1.Cl
8.55

Dear colleague, I am looking for the recorded pEC50 of the following compound: Cc1cc2c(C)nccc2c(C(C)(C)NC(=O)[C@H]2[C@@H]3CNC[C@@H]32)n1
7.32

// returns reported pEC50 for input Cc1nc(C(C)(C)NC(=O)[C@H]2[C@@H]3CNC[C@@H]32)c2ccccc2n1
8.37

// query pEC50 value for entry Cn1nc(C(C)(C)NC(=O)[C@H]2[C@@H]3CNC[C@@H]32)c2cccc(C(F)(F)F)c21
9.10

What value of pEC50 has been recorded for this entry: CC(C)(NC(=O)[C@H]1[C@@H]2CNC[C@@H]21)c1ncc2cnccn12
6.32

Data request, read-out pEC50, for O=C(NC1(Cc2ccccc2C(F)(F)F)CC1)[C@H]1[C@@H]2CNC[C@@H]21
7.25

May I ask what pEC50 has been recorded for Cn1nc(C(C)(C)NC(=O)[C@H]2[C@@H]3CNC[C@@H]32)c2cccnc21 ?
8.00

What measured pEC50 goes with Cc1cccn2c([C@@H](C)NC(=O)[C@H]3[C@@H]4CNC[C@@H]43)ncc12 ?
7.37

Consider the compound shown here: Cc1nc(C(C)NC(=O)[C@H]2[C@@H]3CNC[C@@H]32)c2cccc(C)c2n1 (stereo partly shown) [Example 162] What is its recorded pEC50?
6.89

Suppose we examine the compound CC(C)(COc1ccncc1C(F)(F)F)NC(=O)[C@H]1[C@@H]2CNC[C@@H]21 ; what pEC50 value has been reported?
7.66

GET /values?readout=pEC50&item= Cc1cccn2c(C3(NC(=O)[C@H]4[C@@H]5CNC[C@@H]54)CC3)ncc12
9.05

Need pEC50, item CC(C)(NC(=O)[C@H]1[C@@H]2CNC[C@@H]21)c1ncc2c(Cl)cccn12
9.52

Entry under review: Cc1nc(C(C)(C)NC(=O)[C@H]2[C@@H]3CNC[C@@H]32)n2cccc(F)c12 . Reported pEC50?
9.22

Quick check: pEC50 of CC(C)(NC(=O)[C@H]1[C@@H]2CNC[C@@H]21)c1ncccc1C(F)(F)F.Cl ?
7.76

pEC50 for Cc1cc(C(F)(F)F)ccc1OCC(C)(C)NC(=O)[C@H]1[C@@H]2CNC[C@@H]21 ?
6.85

Need pEC50 of CC(C)(NC(=O)[C@H]1[C@@H]2CNC[C@@H]21)C1CCOc2ccccc21 (stereo partly shown) [Example 178] , thanks.
7.65

###

- target.system: UniProtKB P31391
- method: cAMP assay with human somatostatin 4 receptor (hSSTR4 expressing H4 cells)
- Format: cell-based
- condition.info: cAMP assay, read-out: SSTR4 agonism EC50
Field: log10 EC50. Provide a value for each of the compounds that follow.
The common logarithm of EC50 in nM is what is listed.

API: value(readout=log10 EC50, system=UniProtKB P31391) for record CC(C)(NC(=O)[C@H]1[C@@H]2CNC[C@@H]21)c1ncc2cc(C(F)(F)F)ccn12
3.13

# value lookup — system UniProtKB P31391, readout log10 EC50, item CC(C)(NC(=O)[C@H]1[C@@H]2CNC[C@@H]21)c1nc(C2CC2)c2ccccn12.Cl
0.28

Param readout = log10 EC50; param system = UniProtKB P31391; param query = CC(C)(NC(=O)[C@H]1[C@@H]2CNC[C@@H]21)C1CCOc2ccccc21 (single isomer, unassigned) [Example 179] ; response: value
1.01

Please tell me: log10 EC50 of CC(C)(NC(=O)[C@H]1[C@@H]2CNC[C@@H]21)c1ncnc2c(F)cccc12 , system UniProtKB P31391?
0.88

So what log10 EC50 did Cc1cccc(OCC(C)(C)NC(=O)[C@H]2[C@@H]3CNC[C@@H]32)c1 get with UniProtKB P31391?
2.27

Recorded log10 EC50 for Cc1cc(F)cnc1OCC(C)(C)NC(=O)[C@H]1[C@@H]2CNC[C@@H]21 with UniProtKB P31391, please?
0.57

Entry CC(C)(NC(=O)[C@H]1[C@@H]2CNC[C@@H]21)c1noc2ccccc12 , system UniProtKB P31391: what log10 EC50 was measured?
0.87

Give log10 EC50 (UniProtKB P31391) of the following compound: CC(C)(NC(=O)[C@H]1[C@@H]2CNC[C@@H]21)c1ncc2c(F)cccn12.Cl
0.85

Write down the reported log10 EC50 of CC(C)(NC(=O)[C@H]1[C@@H]2CNC[C@@H]21)c1nc(C2=CCOCC2)c2ccccn12 , test system: UniProtKB P31391.
1.99

# returns recorded log10 EC50 (system: UniProtKB P31391) for O=C(NC1(c2nc3ccc(Cl)cc3[nH]2)CCOC1)[C@H]1[C@@H]2CNC[C@@H]21 (some centres unmarked)
2.50

Item Cc1ccccc1OCC(C)(C)NC(=O)[C@H]1[C@@H]2CN(C)C[C@@H]21.Cl with UniProtKB P31391 - log10 EC50?
1.43

Lab request: please report log10 EC50 under test system UniProtKB P31391 for Cc1cc(Br)ccc1OCC(C)(C)NC(=O)[C@H]1[C@@H]2CNC[C@@H]21
0.86

Give UniProtKB P31391 log10 EC50 for COc1ccn2c(C(C)(C)NC(=O)[C@H]3[C@@H]4CNC[C@@H]43)nc(C)c2c1
1.98

Lab request: please report log10 EC50 under test system UniProtKB P31391 for CC(NC(=O)[C@H]1[C@@H]2CNC[C@@H]21)c1nn(C)c2c(Cl)cccc12 (single isomer, unassigned) [Example 116]
0.32

###

- target.system: human SSTR3 (Homo sapiens (Human))
- Sequence (P32745 whole entry): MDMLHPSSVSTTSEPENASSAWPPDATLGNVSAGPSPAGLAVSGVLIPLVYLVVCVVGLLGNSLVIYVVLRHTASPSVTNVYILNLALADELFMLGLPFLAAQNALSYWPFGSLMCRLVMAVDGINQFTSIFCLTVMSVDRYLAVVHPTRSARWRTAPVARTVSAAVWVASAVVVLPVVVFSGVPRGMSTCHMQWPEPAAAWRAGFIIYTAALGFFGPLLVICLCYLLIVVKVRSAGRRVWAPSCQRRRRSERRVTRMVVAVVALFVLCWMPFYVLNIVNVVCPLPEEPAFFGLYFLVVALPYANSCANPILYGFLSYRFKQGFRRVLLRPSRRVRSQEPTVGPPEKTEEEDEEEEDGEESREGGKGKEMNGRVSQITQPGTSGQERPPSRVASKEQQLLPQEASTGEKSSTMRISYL
- method: Radioligand binding assay, CHO cell membranes expressing recombinant human SSTR3
pKi: −log10 of the molar value.
readout.type: pKi

If you can, please state the reported pKi value of Cc1nc(C(C)(C)NC(=O)[C@H]2[C@@H]3CNC[C@@H]32)c2cccc(C)c2n1 .
< 5.06

Reported pKi for Cc1cccnc1OCC(C)(C)NC(=O)[C@H]1[C@@H]2CNC[C@@H]21 : what is it?
< 5.06

Return reported pKi; argument: Cc1cccn2c(C(C)(C)NC(=O)[C@H]3[C@@H]4CNC[C@@H]43)nc(C3CC3)c12
5.21

Name the recorded pKi for CC(C)(NC(=O)[C@H]1[C@@H]2CNC[C@@H]21)c1nccc2ccccc12.Cl .
< 5.06

Any idea what its pKi is? The compound is Cc1cccc2c(C(C)(C)NC(=O)[C@H]3[C@@H]4CNC[C@@H]43)nn(C)c12
< 5.07

Which pKi value is on record for CC(C)(NC(=O)[C@H]1[C@@H]2CNC[C@@H]21)c1nc2ccc(Cl)cc2[nH]1.Cl ?
< 5.07

Record request: pKi value, item Cc1nc(C(C)(C)NC(=O)[C@H]2[C@@H]3CNC[C@@H]32)c2ccccc2n1
< 5.06

What does the record list as pKi for CC(C)(NC(=O)[C@H]1[C@@H]2CNC[C@@H]21)c1noc2c(F)cccc12 ?
< 5.07

Which pKi value belongs to Cc1ccccc1OCC(C)(C)NC(=O)[C@H]1[C@@H]2CNC[C@@H]21.Cl ?
< 5.06

Would you kindly share the measured pKi for Cc1cccn2c(C(C)(C)NC(=O)[C@H]3[C@@H]4CNC[C@@H]43)ncc12.Cl ?
< 5.06

Given the compound Cc1ncc(C(C)(C)NC(=O)[C@H]2[C@@H]3CNC[C@@H]32)c2ccccc12 , what is its reported pKi?
< 5.06

Which pKi value belongs to CC(C)(COc1cnccc1C(F)(F)F)NC(=O)[C@H]1[C@@H]2CNC[C@@H]21 ?
< 5.15

###

- target.system: UniProtKB P31391
- method: cAMP assay with human somatostatin 4 receptor (hSSTR4 expressing H4 cells)
- Format: cell-based
- condition.info: cAMP assay, read-out: SSTR4 agonism EC50
pEC50: −log10 of the molar value.
Label 0 if pEC50 falls below 8; label 1 in every other case.

Reported pEC50 reaches at least 8 for Cc1cccn2c(C(C)(C)NC(=O)[C@H]3[C@@H]4CNC[C@@H]43)nc(C3CC3)c12 ?
1

Check the entry CC(C)(CCc1ncccc1C(F)(F)F)NC(=O)[C@H]1[C@@H]2CNC[C@@H]21 : does pEC50 equal or exceed 8?
0

pEC50 >= 8 for CC(C)(CCc1ccccc1)NC(=O)[C@H]1[C@@H]2CNC[C@@H]21 ?
0

Is the recorded value of pEC50 equal to or greater than 8 for this compound? Cc1cc2cccnc2c(C(C)(C)NC(=O)[C@H]2[C@@H]3CNC[C@@H]32)n1
1

Threshold query (pEC50 >= 8) on Cc1cccn2c(C(C)(C)NC(=O)[C@H]3[C@@H]4CNC[C@@H]43)ccc12
1

Dear colleague, could you confirm whether CC(C)(COc1ccccc1C(F)(F)F)NC(=O)[C@H]1[C@@H]2CNC[C@@H]21.Cl has pEC50 at or above 8?
1

Could you tell me if the measured pEC50 of CC(C)(NC(=O)[C@H]1[C@@H]2CNC[C@@H]21)C1CCOc2ccccc21 (single isomer, unassigned) [Example 180] reaches 8 or more?
0

I'd appreciate it if you could say whether Cn1nc(C(C)(C)NC(=O)[C@H]2[C@@H]3CNC[C@@H]32)c2ccc(F)cc21 has pEC50 at least equal to 8.
1
